test system: RKO; assay: Solid tumor cell growth inhibition, MTT, 72 h; assay type: cell-based; settings: Homo sapiens
assay.metric: IC90 (µg/mL)

Consider the following illustrative entries.
{"molecule": "C=C1C(=O)[C@]23[C@H](OC(=O)C4CCN(S(=O)(=O)c5ccccc5[N+](=O)[O-])CC4)[C@H]1CC[C@H]2[C@@]12CO[C@@]3(O)[C@@H](O)[C@@H]1C(C)(C)CCC2=O", "unit.string": "µg/mL", "IC90": 1.97}
{"molecule": "C=C1C(=O)[C@]23[C@H](OC(=O)C4CCN(S(=O)(=O)c5cccc([N+](=O)[O-])c5)CC4)[C@H]1CC[C@H]2[C@@]12CO[C@@]3(O)[C@@H](O)[C@@H]1C(C)(C)CCC2=O", "unit.string": "µg/mL", "IC90": 1.84}
{"molecule": "C=C1C(=O)[C@]23[C@H](OC(=O)c4ccncc4)[C@H]1CC[C@H]2[C@@]12CO[C@@]3(O)[C@@H](O)[C@@H]1C(C)(C)CCC2=O", "unit.string": "µg/mL", "IC90": 1.98}
{"molecule": "C=C1C(=O)[C@]23[C@H](OC(=O)c4ccc(C)cc4)[C@H]1CC[C@H]2[C@@]12CO[C@@]3(O)[C@@H](O)[C@@H]1C(C)(C)CCC2=O", "unit.string": "µg/mL", "IC90": 0.87}

[I] C=C1C(=O)[C@]23[C@H](OC(=O)c4ccc(OC)cc4)[C@H]1CC[C@H]2[C@@]12CO[C@@]3(O)[C@@H](O)[C@@H]1C(C)(C)CCC2=O
[II] C=C1C(=O)[C@]23[C@H](OC(=O)C4CCN(S(=O)(=O)CC)CC4)[C@H]1CC[C@H]2[C@@]12CO[C@@]3(O)[C@@H](O)[C@@H]1C(C)(C)CCC2=O
Which record would sort first by descending IC90, I or II ? Please reply using the label of the selected record.
II
(II: 1.93 µg/mL, I: 0.84 µg/mL)

Sourced from patent US9902736B2
